Source listed as PubChem BioAssay (NCI).

# System: SF-268 CNS
# EXPERIMENT NOTES: NCI tumour cell line growth inhibition, 48 h
REPORTED ENDPOINT: TGI

{"columns": ["MOLECULE", "REPORTED ENDPOINT", "REPORTED VALUE"],
 "data": [
  ["c1ccc2nc(-c3ccc4c(c3)OCO4)ccc2c1", "TGI", "> 100 µM"],
  ["CC1CCC2(OC1)OC1CC3C4CCC5CC(O)CCC5(C)C4CC(=O)OC3(C)C1C2C (stereo unspecified)", "TGI", "> 100 µM"],
  ["COc1ccc(C2Oc3ccc(Cl)cc3C=C2[N+](=O)[O-])cc1OC (stereo unspecified)", "TGI", "5 µM"],
  ["COc1cc(COC(=O)N2CSCC2C(=O)O)c([N+](=O)[O-])cc1OC (stereo unspecified)", "TGI", "> 100 µM"],
  ["C#CCCCCC#Cc1ccccc1C(=O)C=[N+]=[N-]", "TGI", "> 100 µM"],
  ["OCn1nc2c(C3OCCO3)cc3ccccc3n2c1=S", "TGI", "> 100 µM"],
  ["CCOC(=O)CO/N=C\\C1=CC(=O)C2CC1C2(C)C (stereo unspecified)", "TGI", "> 100 µM"],
  ["CC(=O)OCCn1c(Cc2ccc(C)cc2)nn(C(C)=O)c1=O", "TGI", "> 100 µM"],
  ["O=C1c2c(c(-c3ccccc3)c(-c3ccccc3)c(-c3ccccc3)c2-c2ccccc2)C(=O)N1c1cccc(Br)c1", "TGI", "> 100 µM"],
  ["CCOC(=O)C(Br)(C(N)=O)C1(O)OC(c2ccccc2)=C(Br)C1=O (stereo unspecified)", "TGI", "41.5 µM"],
  ["Clc1ccccc1CN1COc2c(cc(Cl)c3cccnc23)C1", "TGI", "46.5 µM"]
]}
